pIC50 for assorted compounds
Target: full-length beta-Catenin (Uniprot ID P35222) (Homo sapiens, UniProt P35222)
Construct: 10 nM full-length beta-Catenin (Uniprot ID P35222)
Sequence (P35222 whole entry): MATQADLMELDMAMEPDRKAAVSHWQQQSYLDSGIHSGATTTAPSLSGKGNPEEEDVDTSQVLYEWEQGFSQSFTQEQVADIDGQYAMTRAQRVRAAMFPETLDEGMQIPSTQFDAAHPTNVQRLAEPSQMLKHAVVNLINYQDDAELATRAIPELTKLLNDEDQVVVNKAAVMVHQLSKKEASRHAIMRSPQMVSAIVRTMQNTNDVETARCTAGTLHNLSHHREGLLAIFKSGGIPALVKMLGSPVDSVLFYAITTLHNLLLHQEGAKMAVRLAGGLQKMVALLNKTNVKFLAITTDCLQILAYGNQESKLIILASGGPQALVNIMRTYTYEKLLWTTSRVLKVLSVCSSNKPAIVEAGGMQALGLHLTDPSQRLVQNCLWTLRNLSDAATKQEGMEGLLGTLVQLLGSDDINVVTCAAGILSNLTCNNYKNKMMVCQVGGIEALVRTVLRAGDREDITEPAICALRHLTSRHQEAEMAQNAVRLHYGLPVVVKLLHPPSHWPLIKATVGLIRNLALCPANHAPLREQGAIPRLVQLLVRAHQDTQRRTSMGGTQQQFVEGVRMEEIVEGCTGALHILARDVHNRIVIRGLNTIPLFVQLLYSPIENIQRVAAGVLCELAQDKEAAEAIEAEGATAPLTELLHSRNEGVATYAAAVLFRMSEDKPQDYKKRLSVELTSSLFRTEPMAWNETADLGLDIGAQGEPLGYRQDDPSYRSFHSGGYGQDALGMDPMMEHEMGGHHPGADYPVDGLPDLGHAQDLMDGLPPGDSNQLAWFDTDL
Assay: Fluorescence polarization IC50 (beta-catenin / 5FAM-TCF4 10-53 competition)
Assay type: binding
Details: Table E2-1; read-out: beta-Catenin FP IC50
As a rule, pIC50 stands for the negative log10 of the concentration, concentration in M.

Some solved cases for reference:
CC(=O)N1CCC[C@]12CC=CCCCC1(CCCC=CCCCCCC[C@@](C)(C(=O)N[C@@H](Cc3ccccc3)C(=O)N[C@@H](Cc3c[nH]c4ccccc34)C(=O)N[C@@H](CCC(N)=O)C(N)=O)NC(=O)[C@H](C(C)C)NC(=O)[C@H](Cc3ccccc3)NC(=O)[C@H](C)NC(=O)[C@H](C)NC(=O)[C@H](CC(N)=O)NC(=O)[C@H](CC(=O)O)NC1=O)NC(=O)[C@H](C)NC(=O)[C@H](CC(=O)O)NC2=O (stereo partly drawn) [I-125] | 5.51
CC(=O)N1CCC[C@]12CC=CCCCC1(CCCC=CCCCCCC[C@@](C)(C(=O)N[C@@H](Cc3ccccc3)C(=O)N[C@@H](Cc3csc4ccccc34)C(=O)N[C@@H](CCC(N)=O)C(N)=O)NC(=O)[C@H](CCC(N)=O)NC(=O)[C@H](Cc3cccc(C(F)(F)F)c3)NC(=O)[C@H](C)NC(=O)[C@H](C)NC(=O)[C@H](CC(=O)O)NC(=O)[C@H](CC(=O)O)NC1=O)NC(=O)[C@H](C)NC(=O)[C@H](CC(=O)O)NC2=O (stereo partly drawn) [I-378] | 5.87

Please turn your attention to the following entry.
Prompt: For the compound CC(=O)N1CCC[C@]12CC=CCCCC1(CCCC=CCCCCCC[C@@](C)(C(=O)N[C@@H](Cc3ccccc3)C(=O)N[C@@H](Cc3csc4ccccc34)C(=O)N[C@@H](C)C(N)=O)NC(=O)[C@H](CCC(N)=O)NC(=O)[C@H](Cc3ccccc3)NC(=O)[C@H](C)NC(=O)[C@H](C)NC(=O)[C@H](CC(=O)O)NC(=O)[C@H](CC(=O)O)NC1=O)NC(=O)[C@H](CCO)NC(=O)[C@H](CC(=O)O)NC2=O (stereo partly drawn) [I-299] , what pIC50 is on record?
Response: 5.89
